Data provenance: patent US11319324B2

# assayedTarget: human P2X3 receptor (Homo sapiens, UniProt P56373)
# Sequence (P56373 1-397): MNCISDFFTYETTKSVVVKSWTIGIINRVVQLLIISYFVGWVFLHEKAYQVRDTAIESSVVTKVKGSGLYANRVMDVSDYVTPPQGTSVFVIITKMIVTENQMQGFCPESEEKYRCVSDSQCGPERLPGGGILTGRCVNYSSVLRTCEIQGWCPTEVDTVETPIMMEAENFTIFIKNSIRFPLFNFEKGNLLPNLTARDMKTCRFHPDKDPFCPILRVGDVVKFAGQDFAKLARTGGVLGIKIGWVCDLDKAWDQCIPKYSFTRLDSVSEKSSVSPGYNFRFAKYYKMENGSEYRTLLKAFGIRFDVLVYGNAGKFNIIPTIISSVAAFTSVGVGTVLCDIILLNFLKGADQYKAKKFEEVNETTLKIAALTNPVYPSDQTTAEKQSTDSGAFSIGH
# method: Intracellular calcium measurement to assess antagonist activity at human P2X3 receptors (hP2X3 CHO), photina luminescence
# Assay type: cell-based
# Parameters: expressed in transfected cells; host or cells: Chinese hamster ovary (CHO) cells
# protocolConditions: column 2), CHO cells, agonist α,β-methylene-ATP at EC50
observable: IC50 (nM)

COC[C@H](C)N1Cc2c(n(CC(=O)Nc3ccc(F)cn3)c3cc(C(=O)N4CCC4)nn3c2=O)C1=O [Example 194] ... 18
CCc1cc2n(CC(=O)Nc3ccc(F)cn3)c3c(c(=O)n2n1)CN(C1CCS(=O)(=O)CC1)C3=O [Example 119] ... 470

(A) COC[C@H](C)N1Cc2c(n(CC(=O)Nc3ccc(F)cn3)c3cc(C4CCC4)nn3c2=O)C1=O [Example 110]
(B) CC(C)N1Cc2c(n(CC(=O)Nc3ccc(F)cn3)c3cc(C(=O)NCC(F)F)nn3c2=O)C1=O [Example 184]
(C) CC(C)NC(=O)Nc1cc2n(CC(=O)Nc3ccc(F)cn3)c3c(c(=O)n2n1)CN(C(C)C)C3=O [Example 290]
(D) O=C(Cn1c2c(c(=O)n3nc(C4CCOCC4)cc13)CN(C1CCCC1)C2=O)Nc1ccc(F)cn1 [Example 92]
(E) CCc1cc2n(CC(=O)Nc3ccc(F)cn3)c3c(c(=O)n2n1)CN(CC1CCOC1)C3=O (centres unmarked) [Example 74]
Ordering: ascending IC50. Response field: labels, in requested order. A, B, D, C, E

(P) CC(C)N1Cc2c(n(CC(=O)Nc3ccc(F)cn3)c3cc(C(=O)Nc4ccc(Cl)cn4)nn3c2=O)C1=O [Example 213]
(Q) CCc1cc2n(CC(=O)Nc3ccccn3)c3c(c(=O)n2n1)CN(C(C)C)C3=O [Example 64]
(R) Cc1ccc(-c2cc3n(CC(=O)Nc4ccc(F)cn4)c4c(c(=O)n3n2)CN(C(C)C)C4=O)c(C)n1 [Example 157]
(S) COC[C@H](C)N1Cc2c(n(CC(=O)Nc3ccc(F)cn3)c3cc(-c4cc(C)ncc4C)nn3c2=O)C1=O [Example 158]
(T) CC(C)N1Cc2c(n(CC(=O)Nc3ccc(F)cn3)c3cc(C(=O)Nc4ccccc4F)nn3c2=O)C1=O [Example 200]
// sort entries: IC50, high to low Response field: labels, in requested order. Q, P, T, R, S

(A) Cc1ccc(NC(=O)Cn2c3c(c(=O)n4nc(C(C)(C)C)cc24)CN(C2CCC2)C3=O)nc1 [Example 19]
(B) CC[C@H](C)N1Cc2c(n(CC(=O)Nc3ccc(Cl)cn3)c3cc(C(F)(F)F)nn3c2=O)C1=O [Example 22]
(C) CCc1cc2n(CC(=O)Nc3ccc(F)cn3)c3c(c(=O)n2n1)CN(C[C@H]1CN(C(C)C)CCO1)C3=O [Example 256]
(D) CC(C)N1Cc2c(n(CC(=O)Nc3ccc(F)cn3)c3cc(C(=O)NC4CCCC4)nn3c2=O)C1=O [Example 185]
(E) O=C(Cn1c2c(c(=O)n3nc(-c4ccncc4)cc13)CN(Cc1ccccn1)C2=O)Nc1ccc(F)cn1 [Example 130]
// sort entries: IC50, high to low Response field: labels, in requested order. A, B, C, D, E

(P) CCc1cc2n(CC(=O)Nc3ccc(F)cn3)c3c(c(=O)n2n1)CN(CC1CCOCC1)C3=O [Example 83]
(Q) COCCN1Cc2c(n(CC(=O)Nc3ccc(F)cn3)c3cc(C(C)(C)C)nn3c2=O)C1=O [Example 49]
(R) CC(C)N1Cc2c(n(CC(=O)Nc3ccc(F)cn3)c3cc(C(=O)N4CCOCC4)nn3c2=O)C1=O [Example 225]
(S) CCc1cc2n(CC(=O)Nc3ccc(F)cn3)c3c(c(=O)n2n1)CN(C1CCN(C(=O)OC(C)(C)C)C1)C3=O (centres unmarked) [Example 78]
(T) CCc1cc2n(CC(=O)Nc3ccc(F)cn3)c3c(c(=O)n2n1)CN(C1CCN(C2CCC2)C1)C3=O (centres unmarked) [Example 254]
Ordering: ascending IC50. Response field: labels, in requested order. S, R, Q, P, T
(S: 21 nM, R: 37 nM, Q: 62 nM, P: 370 nM, T: 1150 nM)
